target-under-test: Glutamate NMDA receptor; GRIN1/GRIN2B (Homo sapiens, UniProt Q05586+Q13224)
Sequence (Q13224 whole entry, other chains not shown): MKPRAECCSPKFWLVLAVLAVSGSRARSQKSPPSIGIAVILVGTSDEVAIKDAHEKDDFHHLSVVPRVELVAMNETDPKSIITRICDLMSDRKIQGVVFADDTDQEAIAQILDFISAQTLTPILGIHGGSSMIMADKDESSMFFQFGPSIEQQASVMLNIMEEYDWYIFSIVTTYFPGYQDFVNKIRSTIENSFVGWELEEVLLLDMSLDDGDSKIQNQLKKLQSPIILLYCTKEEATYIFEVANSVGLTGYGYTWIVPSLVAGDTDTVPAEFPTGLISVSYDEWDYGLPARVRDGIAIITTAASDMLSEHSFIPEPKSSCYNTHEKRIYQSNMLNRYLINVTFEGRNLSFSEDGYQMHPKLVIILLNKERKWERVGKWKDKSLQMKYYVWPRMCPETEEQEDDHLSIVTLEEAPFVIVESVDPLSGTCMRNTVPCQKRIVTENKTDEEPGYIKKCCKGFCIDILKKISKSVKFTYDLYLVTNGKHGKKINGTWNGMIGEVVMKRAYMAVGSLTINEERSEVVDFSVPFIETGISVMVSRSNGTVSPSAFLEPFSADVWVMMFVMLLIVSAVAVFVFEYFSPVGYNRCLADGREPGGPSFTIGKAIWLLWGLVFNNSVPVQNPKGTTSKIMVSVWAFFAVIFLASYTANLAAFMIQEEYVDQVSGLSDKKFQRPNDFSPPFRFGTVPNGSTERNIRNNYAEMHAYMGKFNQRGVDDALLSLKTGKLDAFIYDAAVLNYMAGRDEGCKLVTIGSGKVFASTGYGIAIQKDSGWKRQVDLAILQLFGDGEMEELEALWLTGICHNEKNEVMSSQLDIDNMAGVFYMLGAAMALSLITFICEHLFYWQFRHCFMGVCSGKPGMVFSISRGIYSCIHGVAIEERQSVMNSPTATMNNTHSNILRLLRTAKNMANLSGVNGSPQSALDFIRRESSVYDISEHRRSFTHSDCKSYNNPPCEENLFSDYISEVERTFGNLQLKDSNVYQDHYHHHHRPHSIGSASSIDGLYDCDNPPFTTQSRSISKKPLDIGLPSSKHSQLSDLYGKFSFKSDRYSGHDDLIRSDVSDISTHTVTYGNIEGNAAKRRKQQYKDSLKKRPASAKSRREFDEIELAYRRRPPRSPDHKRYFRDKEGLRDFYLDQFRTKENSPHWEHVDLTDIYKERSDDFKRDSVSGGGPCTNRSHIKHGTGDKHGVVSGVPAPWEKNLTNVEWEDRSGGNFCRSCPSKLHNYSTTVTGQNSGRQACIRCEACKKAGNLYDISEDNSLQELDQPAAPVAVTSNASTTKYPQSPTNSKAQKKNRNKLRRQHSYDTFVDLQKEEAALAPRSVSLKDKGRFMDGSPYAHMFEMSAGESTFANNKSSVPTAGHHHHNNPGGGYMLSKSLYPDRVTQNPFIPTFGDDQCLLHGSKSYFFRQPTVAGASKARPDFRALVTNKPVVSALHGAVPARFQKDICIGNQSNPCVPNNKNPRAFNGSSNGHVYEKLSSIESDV
assay-method-text: Antagonist activity at human recombinant NR1/NR2B receptor expressed in frog oocytes assessed as inhibition of glutamate/glycine-induced current by two electrode voltage clamp method
pIC50: −log10 of the molar value.
assay-endpoint: pIC50

1: CS(=O)(=O)Nc1ccc(OCC(=O)NCCSc2ccc(Cl)c(Cl)c2)cc1
2: CS(=O)(=O)Nc1ccc(CCC(=O)NNC(=O)Nc2ccc(Cl)c(Cl)c2)cc1
3: CS(=O)(=O)Nc1ccc(CCC(=O)NNCCc2ccc(Cl)c(Cl)c2)cc1
Rank the 3 molecules: largest pIC50 first, smallest last. Provide your answer as the labels ordered per the instruction.
2, 1, 3
(2: 7.55, 1: 6.44, 3: 5.32)

a: CS(=O)(=O)Nc1ccc(CCCN2CCN(c3ccc(Cl)c(Cl)c3)C2=O)cc1
b: CS(=O)(=O)Nc1ccc(OCC(=O)NCCCNc2ccc(Cl)c(Cl)c2)cc1
c: CS(=O)(=O)Nc1ccc(CCCC(=O)NCCc2ccc(Cl)c(Cl)c2)cc1
Put the molecules in ascending order of pIC50. Ranked list of labels, please, in the requested order.
c, a, b
(c: 5.73, a: 6.20, b: 6.71)

A: CS(=O)(=O)Nc1ccc(CCC(=O)NN2C(=O)c3cc(Cl)c(Cl)cc3C2=O)cc1
B: CS(=O)(=O)Nc1ccc(CCC(=O)NCCCNc2ccc(Cl)c(Cl)c2)cc1
C: CS(=O)(=O)Nc1ccc(CCC(=O)NCCNc2ccc(Cl)c(Cl)c2)cc1
D: CS(=O)(=O)Nc1ccc(CCC(=O)NNC(=S)Nc2ccc(Cl)c(Cl)c2)cc1
Ascending by pIC50, please: list the molecules accordingly. Write the labels out in the order the request specifies.
A, B, D, C
(A: 4.38, B: 6.12, D: 6.57, C: 7.19)

A: CS(=O)(=O)Nc1ccc(OCC(=O)NCCCc2ccc(Cl)c(Cl)c2)cc1
B: CS(=O)(=O)Nc1ccc(CCC(=O)NNC(=O)c2ccc(Cl)c(Cl)c2)cc1
C: CS(=O)(=O)Nc1ccc(OCCNCC(=O)Nc2ccc(Cl)c(Cl)c2)cc1
D: CS(=O)(=O)Nc1ccc(OCC(=O)N2CCN(c3ccc(Cl)c(Cl)c3)CC2)cc1
Number of molecules to sort: 4. Sort criterion: pIC50, ascending. To answer, write out the labels according to the requested order.
C, B, D, A
(C: 5.95, B: 6.28, D: 6.78, A: 7.19)

====

target-under-test: Glutamate NMDA receptor; Grin1/Grin2c (Rattus norvegicus) (UniProt P35439+Q00961)
assay-method-text: Antagonist activity at rat recombinant NR1/NR2C receptor expressed in Xenopus laevis oocytes assessed as inhibition of glutamate/glycine-induced current at 3 uM by two electrode voltage clamp method relative to control
Assay type: functional, cell-based
cond: Oocyte
assay-endpoint: % response (%)

>>> print(df.to_string())
                           structure_smiles  number
0  CS(=O)(=O)Nc1ccc(OCC(=O)NCCOc2ccc(Cl)c(Cl)c2)cc1      96
1  CS(=O)(=O)Nc1ccc(CCCC(=O)NCCc2ccc(Cl)c(Cl)c2)cc1     102
2  CS(=O)(=O)Nc1ccc(OCCNCCNc2ccc(Cl)c(Cl)c2)cc1     100
3  CS(=O)(=O)Nc1ccc(OCC(=O)NCCNc2ccc(Cl)c(Cl)c2)cc1      98
4  CS(=O)(=O)Nc1ccc(CCC(=O)NN2C(=O)c3cc(Cl)c(Cl)cc3C2=O)cc1     102
